Catalogue of recombinant UMI read abundance (log10) readings, one per entry.
Experiment: recombinant UMI read abundance after kanamycin selection (control-corrected) (log10(CPM+1)); higher = more efficient recombination; extreme values may be limits of the assay; sequences stand for … in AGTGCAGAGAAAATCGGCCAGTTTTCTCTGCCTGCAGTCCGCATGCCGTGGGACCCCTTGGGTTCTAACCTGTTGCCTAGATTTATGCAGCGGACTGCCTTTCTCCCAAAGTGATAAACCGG…AGGTTGGTTTCACT; site = the 11-nt donor;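 further: IS621 bridge recombinase in Escherichia coli cells against a fixed T5 target plasmid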

{"Primary Sequence": "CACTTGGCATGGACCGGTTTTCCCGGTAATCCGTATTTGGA (site CACATGGCTTC)", "recombinant UMI read abundance (log10)": 0.0226}
{"Primary Sequence": "AAGTGAGCATGGACCGGTTTTCCCGGTAATCCGTATTTGGA (site AAGTGAGCTTC)", "recombinant UMI read abundance (log10)": 0.812}
{"Primary Sequence": "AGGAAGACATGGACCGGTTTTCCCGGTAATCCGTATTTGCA (site GGGCAGACTTG)", "recombinant UMI read abundance (log10)": 0.837}
{"Primary Sequence": "CTCACTACATGGACCGGTTTTCCCGGTAATCCGTATTTGAG (site CTCTCTACTCT)", "recombinant UMI read abundance (log10)": 0}
{"Primary Sequence": "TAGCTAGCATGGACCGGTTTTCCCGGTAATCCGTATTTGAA (site TAGCTAACTTT)", "recombinant UMI read abundance (log10)": 0.0471}
